- STUDY SYSTEM: T1, Rb^P M704V (human, UniProt P06400 380-788, M704V)
- T1 construct: also called variant 66
- T1 sequence (looked up): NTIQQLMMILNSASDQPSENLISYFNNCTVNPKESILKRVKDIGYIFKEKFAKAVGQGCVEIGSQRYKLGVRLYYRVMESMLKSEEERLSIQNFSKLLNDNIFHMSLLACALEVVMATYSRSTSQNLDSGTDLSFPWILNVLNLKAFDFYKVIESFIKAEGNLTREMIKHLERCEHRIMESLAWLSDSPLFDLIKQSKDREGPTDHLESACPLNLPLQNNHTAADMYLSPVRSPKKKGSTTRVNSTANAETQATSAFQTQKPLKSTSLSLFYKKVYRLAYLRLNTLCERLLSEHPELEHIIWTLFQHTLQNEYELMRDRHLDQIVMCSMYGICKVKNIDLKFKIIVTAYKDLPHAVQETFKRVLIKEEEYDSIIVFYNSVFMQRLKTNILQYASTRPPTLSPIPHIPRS
- MEASUREMENT DESCRIPTION: fluorescence polarisation; 25 °C after warming to 37 °C (7 min ramp, 2 min at 37 °C), 1 min on ice and 3 min at 25 °C; unlabeled Rb^P against 1.5 nM TMR-E2F1^TD or 7.5 nM TMR-E7^LxCxE; 25 mM Tris pH 8.0, 200 mM NaCl, 1 mM DTT, 0.1% Tween-20; apparent Kd
- TEST CONDITIONS: both partners purified
No end group written: not given here. TMR = tetramethyl rhodamine dye
A collection of binders and their measured Kd
Please respond with the number in nM and leave the unit unwritten.

{TMR}-GEGIRDLFDCDFGDLTPLD (also called E2F^TD; source: synthetic peptide, bought: GenScript) [TMR-E2F1^TD, peptide of the E2F1 transactivation domain] = 46

# input for lookup
Prompt: Fill in the blank: the reported Kd of DLYCYEQLN (also: TMR label, position not given here, source: synthetic peptide, bought: GenScript) [TMR-E7^LxCxE, LxCxE peptide of the E7 oncoprotein from HPV] is ____.
Response: 14
